Hello, the source for this data is paper PMC8219695, in case you need it.

- target_under_test: mKOR (Mus musculus)
- Construct: expressed in transfected cells; membranes
- test_name: [125I]BNtxA radioligand competition binding, mouse KOR
- study_conditions: mean ± SEM, n = 3; [125I]BNtxA; read-out: Ki ± SEM mKOR
assay_endpoint: Ki (nM)
Express it in nM; write the number only.

| molecule | assay_endpoint | recorded_number |
| --- | --- | --- |
| CC[C@@H]1CN2CC[C@@]3(O)C(=Nc4cc(F)cc(OC)c43)[C@@H]2C[C@@H]1/C(=C\OC)C(=O)OC [11-F-7OH (22), 11-Fluoro-7-hydroxymitragynine] | Ki | 21 |
| CC[C@@H]1CN2CC[C@@]3(O)C(=Nc4cc(Br)cc(OC)c43)[C@@H]2C[C@@H]1/C(=C\OC)C(=O)OC [11-Br-7OH (24), 11-Br-7OH] | Ki | 81.1 |

In the following, a different molecule is considered.
input: Which Ki value belongs to CC[C@@H]1CN2CC[C@@]3(O)C(=Nc4cc(Cl)cc(OC)c43)[C@@H]2C[C@@H]1/C(=C\OC)C(=O)OC [11-Cl-7OH (23), 11-Cl-7OH] ?
output: 30.7

====

Below are IC50 values measured for hMOR (Homo sapiens).
Please don't drop the unit; write it after the number.

Example entries begin here.
| compound | result |
| --- | --- |
| CC[C@@H]1CN2CC[C@@]3(O)C(=Nc4cc(F)cc(OC)c43)[C@@H]2C[C@@H]1/C(=C\OC)C(=O)OC [11-F-7OH (22), 11-Fluoro-7-hydroxymitragynine] | 0.59 µM |
| CC[C@@H]1CN2CC[C@@]3(O)C(=Nc4cc(Br)cc(OC)c43)[C@@H]2C[C@@H]1/C(=C\OC)C(=O)OC | 1.97 µM |

In the following, a different compound is considered.
input: Which IC50 value belongs to CC[C@@H]1CN2CC[C@@]3(O)C(=Nc4cc(Cl)cc(OC)c43)[C@@H]2C[C@@H]1/C(=C\OC)C(=O)OC ?
output: 0.92 µM

====

- target_under_test: hMOR (Homo sapiens)
- Construct: expressed in transfected cells; plasmid a gift from Dr. Nevin Lambert
- test_name: CAMYEL BRET cAMP agonist assay at hMOR
- Format: cell-based
Form field: Emax (one value per entry).
Express it in %; write the number only.

Example entries begin here.
| compound | unit_string | Emax |
| --- | --- | --- |
| CC[C@@H]1CN2CC[C@@]3(O)C(=Nc4cc(F)cc(OC)c43)[C@@H]2C[C@@H]1/C(=C\OC)C(=O)OC [11-F-7OH (22), 11-Fluoro-7-hydroxymitragynine] | % | 57 |
| CC[C@@H]1CN2CC[C@@]3(O)C(=Nc4cc(Br)cc(OC)c43)[C@@H]2C[C@@H]1/C(=C\OC)C(=O)OC | % | 14 |
| CC[C@@H]1CN2CC[C@@]3(O)C(=Nc4cccc(OC)c43)[C@@H]2C[C@@H]1/C(=C\OC)C(=O)OC [7OH, 7-Hydroxymitragynine, reference compound] | % | 96 |

In the following, a different compound is considered.
input: Which Emax value belongs to CC[C@@H]1CN2CC[C@@]3(O)C(=Nc4cc(Cl)cc(OC)c43)[C@@H]2C[C@@H]1/C(=C\OC)C(=O)OC ?
output: 23
